Values from patent US20240166738A1

Target: human TMEM106B (human, UniProt Q9NUM4 2-274); also: test concentration or dose not given here
Test: cell-based or functional assay
Let's look at some binders and their measured % Protection from CPE.
Only the number, expressed in %, is required.

# count of solved cases: 4
binder	unitInfo	% Protection from CPE
TM-50 (antibody, V domains shown) VH: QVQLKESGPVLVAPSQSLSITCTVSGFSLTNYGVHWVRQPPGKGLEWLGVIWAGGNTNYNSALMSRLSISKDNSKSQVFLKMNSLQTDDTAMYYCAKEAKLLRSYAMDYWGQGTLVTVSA VL: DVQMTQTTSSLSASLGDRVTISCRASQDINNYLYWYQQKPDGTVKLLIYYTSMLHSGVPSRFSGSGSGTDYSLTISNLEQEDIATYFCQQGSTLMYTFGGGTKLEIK	%	3.9
TM-1 (antibody, V domains shown) VH: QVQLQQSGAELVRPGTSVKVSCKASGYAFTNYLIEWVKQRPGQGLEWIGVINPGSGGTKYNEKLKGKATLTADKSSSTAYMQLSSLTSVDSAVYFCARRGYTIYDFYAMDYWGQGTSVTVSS VL: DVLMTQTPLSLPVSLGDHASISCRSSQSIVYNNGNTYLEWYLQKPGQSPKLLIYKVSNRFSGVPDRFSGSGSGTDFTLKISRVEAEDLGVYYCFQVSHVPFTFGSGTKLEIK	%	6.4
TM-22 (antibody, V domains shown) VH: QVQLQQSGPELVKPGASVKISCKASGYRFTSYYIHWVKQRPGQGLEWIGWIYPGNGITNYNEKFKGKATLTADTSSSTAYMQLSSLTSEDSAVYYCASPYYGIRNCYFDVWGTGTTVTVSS VL: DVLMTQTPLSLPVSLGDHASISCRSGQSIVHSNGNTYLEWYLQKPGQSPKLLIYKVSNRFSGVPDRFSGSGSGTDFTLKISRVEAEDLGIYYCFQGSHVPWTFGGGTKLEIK	%	4.4
TM-39 (antibody, V domains shown) VH: HVQRQQSGTELAKPGASVKLSCKTSGYTFTDYWMHWIKQRPGQGLEWIGFINPSSGYTKYNQNFKDKATLTADKSSSTAYMQLSSLTYEDSAVFYCAREAGSISDWYFDVWGTGTTVTVSS VL: DIVMTQAAPSIPVTPGESVSISCRSSKTLLNSNGNTYLYWFLQRPGQPPQLLIYRMSNLASGVPDRFSGSGSGTAFTLRISRVEAEDVGVYYCMQHLDYPYTFGGGTQLEIK	%	4.2

Now consider a different binder.
The value of % Protection from CPE measured for the binder TM-49 (antibody, V domains shown, mouse hybridoma mAb) VH: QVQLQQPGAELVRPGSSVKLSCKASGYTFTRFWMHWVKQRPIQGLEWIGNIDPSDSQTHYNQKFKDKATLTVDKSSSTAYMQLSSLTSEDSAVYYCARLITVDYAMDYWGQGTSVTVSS VL: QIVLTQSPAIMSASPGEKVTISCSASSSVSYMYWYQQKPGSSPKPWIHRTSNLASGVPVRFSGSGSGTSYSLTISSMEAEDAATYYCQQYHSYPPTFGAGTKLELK turned out to be 49.6
